System: HDQ-P1 (Breast Carcinoma);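 also: after 72 h of two-drug dosing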
Experiment: Bliss excess, mean over the matrix (fraction); higher = more synergy
RESULT TYPE: Bliss excess
Answers are plain numbers.

For every item below, please supply its Bliss excess.
1. CC1(C)CCC(CN2CCN(c3ccc(C(=O)NS(=O)(=O)c4ccc(NCC5CCOCC5)c([N+](=O)[O-])c4)c(Oc4cnc5[nH]ccc5c4)c3)CC2)=C(c2ccc(Cl)cc2)C1 [Venetoclax] + C[C@@H]1COCCN1C2=NC(=NC(=C2)C3(CC3)[S@](=N)(=O)C)C4=C5C=CNC5=NC=C4 [AZD6738] (first compound max 1 µM, 7x7, partner max 10 µM)
2. CN(CCO)CC[C@H](CSc1ccccc1)Nc1ccc(S(=O)(=O)NC(=O)c2ccc(N3CCC([C@@H](O)c4ccccc4-c4ccc(Cl)cc4)CC3)cc2)cc1S(=O)(=O)C(F)(F)F [AZD4320] + C[C@@H]1COCCN1C2=NC(=NC(=C2)C3(CC3)[S@](=N)(=O)C)C4=C5C=CNC5=NC=C4 [AZD6738] (first compound max 1 µM, 7x7, partner max 10 µM)

OUTPUT:
-0.0327
0.0268

====

Tested on: DiFi (Colorectal Carcinoma)
Assay: combination Emax (second highest fraction inhibited in the dose matrix, 72 h); higher = more inhibition; extreme values may be limits of the assay
RESULT TYPE: combination Emax
Give bare numbers.

Sample records with combination Emax:
MOLECULE: Cc1cc2ncnn2cc1Nc1ncc2c(n1)n(C1CCOCC1)c(=O)n2C [AZD7648] + C=CCn1c(=O)c2cnc(Nc3ccc(N4CCN(C)CC4)cc3)nc2n1-c1cccc(C(C)(C)O)n1 [AZD1775] (first compound max 10 µM, partner max 1 µM)
combination Emax: 0.821

MOLECULE: C=CCn1c(=O)c2cnc(Nc3ccc(N4CCN(C)CC4)cc3)nc2n1-c1cccc(C(C)(C)O)n1 [AZD1775] + O=C(c1cc(Cc2n[nH]c(=O)c3ccccc23)ccc1F)N1CCN(C(=O)C2CC2)CC1 [Olaparib] (first compound max 1 µM, partner max 10 µM)
combination Emax: 0.678

Pending molecule:
INPUT: Would you please give the reported combination Emax of CC(=O)c1c(C)c2cnc(Nc3ccc(N4CCNCC4)cn3)nc2n(C2CCCC2)c1=O [Palbociclib] + CN(CC[C@H](CSC1=CC=CC=C1)NC2=C(C=C(C=C2)S(=O)(=O)NC(=O)C3=CC=C(C=C3)N4CCC(CC4)[C@H](C5=CC=CC=C5C6=CC=C(C=C6)Cl)O)S(=O)(=O)C(F)(F)F)CCO [AZD4320] (first compound max 10 µM, 7x7, partner max 1 µM) with DiFi (Colorectal Carcinoma)?
OUTPUT: 0.812

====

Tested on: CHP-212 (Neuroblastoma)
Assay: combination Emax (second highest fraction inhibited in the dose matrix, 72 h); higher = more inhibition; extreme values may be limits of the assay
Values of combination Emax greater than or equal to 0.9 map to TRUE; values below map to FALSE.

COMPOUND: CCN(CCO)CCCOc1ccc2c(Nc3cc(CC(=O)Nc4cccc(F)c4)[nH]n3)ncnc2c1 [AZD2811] + C[C@@H]1COCCN1C2=NC(=NC(=C2)C3(CC3)[S@](=N)(=O)C)C4=C5C=CNC5=NC=C4 [AZD6738] (first compound max 1 µM, 7x7, partner max 10 µM)
ASSIGNED CATEGORY: FALSE
--
COMPOUND: CC(=O)Nc1cccc(-n2c(=O)n(C3CC3)c(=O)c3c(Nc4ccc(I)cc4F)n(C)c(=O)c(C)c32)c1 [Trametinib] + Cc1nc(-c2cn3c(n2)-c2ccc(-c4cnn(C(C)(C)C(N)=O)c4)cc2OCC3)n(C(C)C)n1 [Taselisib] (first compound max 1 µM, 7x7, partner max 10 µM)
ASSIGNED CATEGORY: TRUE
--
COMPOUND: COc1cccc(OCCCN)c1-c1cc(Nc2cnc(C#N)cn2)n[nH]1 [Prexasertib] + O=C(c1cc(Cc2n[nH]c(=O)c3ccccc23)ccc1F)N1CCN(C(=O)C2CC2)CC1 [Olaparib] (first compound max 1 µM, 7x7, partner max 10 µM)
ASSIGNED CATEGORY: FALSE
--
COMPOUND: Cc1c2c(nn1C)CSCc1cc(n(C)n1)CSc1cc(c3ccccc3c1)OCCCc1c(C(=O)O)n(C)c3c-2c(Cl)ccc13 [AZD5991] + Cc1cc2ncnn2cc1Nc1ncc2c(n1)n(C1CCOCC1)c(=O)n2C [AZD7648] (first compound max 1 µM, 7x7, partner max 10 µM)
ASSIGNED CATEGORY: FALSE
--
COMPOUND: COc1cc2ncnc(Nc3ccc(F)c(Cl)c3)c2cc1OCCCN1CCOCC1 [Gefitinib] + CC(C)n1c(=O)n(C)c2cnc3cc(F)c(-c4ccc(OCCCN5CCCCC5)nc4)cc3c21 [AZD1390] (first compound max 10 µM, 7x7, partner max 0.3 µM)
ASSIGNED CATEGORY: FALSE

INPUT: Quick check, combination Emax >= 0.9? COc1nnc2ccc(N3CCC(c4ccc(OCCN5CCN(C)C(=O)[C@H]5C)cc4)CC3)nn12 [AZD5153] + Cc1c2c(nn1C)CSCc1cc(n(C)n1)CSc1cc(c3ccccc3c1)OCCCc1c(C(=O)O)n(C)c3c-2c(Cl)ccc13 [AZD5991] (first compound max 1 µM, 7x7, partner max 1 µM)
OUTPUT: TRUE

INPUT: Quick check, combination Emax >= 0.9? CN(C)CCCOc1ccc(-c2ccc3ncc4c(c3c2)n(C2CCOCC2)c(=O)n4C)cn1 [AZD0156] + O=C(c1cc(Cc2n[nH]c(=O)c3ccccc23)ccc1F)N1CCN(C(=O)C2CC2)CC1 [Olaparib] (first compound max 3 µM, partner max 3 µM)
OUTPUT: FALSE

INPUT: Quick check, combination Emax >= 0.9? Cc1cc2ncnn2cc1Nc1ncc2c(n1)n(C1CCOCC1)c(=O)n2C [AZD7648] + C=CCn1c(=O)c2cnc(Nc3ccc(N4CCN(C)CC4)cc3)nc2n1-c1cccc(C(C)(C)O)n1 [AZD1775] (first compound max 10 µM, partner max 1 µM)
OUTPUT: FALSE

INPUT: Quick check, combination Emax >= 0.9? COc1nnc2ccc(N3CCC(c4ccc(OCCN5CCN(C)C(=O)[C@H]5C)cc4)CC3)nn12 [AZD5153] + Cn1cnc2c(F)c(Nc3ccc(Br)cc3Cl)c(C(=O)NOCCO)cc21 [Selumetinib] (first compound max 1 µM, 7x7, partner max 10 µM)
OUTPUT: TRUE

INPUT: Quick check, combination Emax >= 0.9? Cc1c2c(nn1C)CSCc1cc(n(C)n1)CSc1cc(c3ccccc3c1)OCCCc1c(C(=O)O)n(C)c3c-2c(Cl)ccc13 [AZD5991] + C[C@@H]1COCCN1C2=NC(=NC(=C2)C3(CC3)[S@](=N)(=O)C)C4=C5C=CNC5=NC=C4 [AZD6738] (first compound max 1 µM, 7x7, partner max 10 µM)
OUTPUT: TRUE

INPUT: Quick check, combination Emax >= 0.9? COc1cccc2c1C(=O)c1c(O)c3c(c(O)c1C2=O)C[C@@](O)(C(=O)CO)C[C@@H]3O[C@H]1C[C@H](N)[C@H](O)[C@H](C)O1 [Doxorubicin] + Cc1cc2ncnn2cc1Nc1ncc2c(n1)n(C1CCOCC1)c(=O)n2C [AZD7648] (first compound max 1 µM, 7x7, partner max 10 µM)
OUTPUT: FALSE

INPUT: Quick check, combination Emax >= 0.9? Cc1c2c(nn1C)CSCc1cc(n(C)n1)CSc1cc(c3ccccc3c1)OCCCc1c(C(=O)O)n(C)c3c-2c(Cl)ccc13 [AZD5991] + CC1(C)CCC(CN2CCN(c3ccc(C(=O)NS(=O)(=O)c4ccc(NCC5CCOCC5)c([N+](=O)[O-])c4)c(Oc4cnc5[nH]ccc5c4)c3)CC2)=C(c2ccc(Cl)cc2)C1 [Venetoclax] (first compound max 1 µM, 7x7, partner max 1 µM)
OUTPUT: FALSE

INPUT: Quick check, combination Emax >= 0.9? CC(=O)c1c(C)c2cnc(Nc3ccc(N4CCNCC4)cn3)nc2n(C2CCCC2)c1=O [Palbociclib] + Cn1cnc2c(F)c(Nc3ccc(Br)cc3Cl)c(C(=O)NOCCO)cc21 [Selumetinib] (first compound max 10 µM, 7x7, partner max 10 µM)
OUTPUT: TRUE

INPUT: Quick check, combination Emax >= 0.9? COc1cccc(OCCCN)c1-c1cc(Nc2cnc(C#N)cn2)n[nH]1 [Prexasertib] + C[C@@H]1COCCN1C2=NC(=NC(=C2)C3(CC3)[S@](=N)(=O)C)C4=C5C=CNC5=NC=C4 [AZD6738] (first compound max 1 µM, 7x7, partner max 10 µM)
OUTPUT: FALSE
